Measured values drawn from patent US20260234232A1 for this set.

system under test: T1, human VEGFA165 (human, UniProt P15692-4 27-191)
T1 construct: Bought protein from two suppliers, treated as one molecule; the supplier is named under assay; also called antigen VEGFA
T1 sequence (P15692 other isoform, or with tags, fused parts or gaps limits assumed): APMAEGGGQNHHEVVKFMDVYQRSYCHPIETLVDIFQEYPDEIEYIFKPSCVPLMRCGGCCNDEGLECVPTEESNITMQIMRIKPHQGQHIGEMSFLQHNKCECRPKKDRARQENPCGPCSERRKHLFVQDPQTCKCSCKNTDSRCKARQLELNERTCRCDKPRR
experiment notes: competitive ELISA, coated VEGFA, competitor VEGFR2-ECD-Fc 1 nM
parameter measured: IC50 (nM)
Numeric answer only, unit nM assumed.

Documented IC50 of 2V1-9GS (VHH, Tandem bivalent nanobody) QLQLVESGGGSVQPGGSLRLSCEVSGRTFSSYTMGWFRQAPGKEREFVVAISKGGYKYDSVSLEARFTISKDNTKNTVYLQMNSLKPEDTAVYYCAATRAYGSSRLRLADTYEYWGQGTQVTVSSGGGGSGGGSQLQLVESGGGSVQPGGSLRLSCEVSGRTFSSYTMGWFRQAPGKEREFVVAISKGGYKYDSVSLEARFTISKDNTKNTVYLQMNSLKPEDTAVYYCAATRAYGSSRLRLADTYEYWGQGTQVTVSS : 2.97

Documented IC50 of 2V15-9GS (VHH, Tandem bivalent nanobody) QLQLVESGGGSVQPGGSLRLSCEVSGRTFASYTMGWFRQAPGKEREFVVAISKGGYKYDSVSLEARFTISKDNTKNTVYLQMNSLKPEDTAVYYCAGTRAYGSSRLRLAETYEYWGQGTQVTVSSGGGGSGGGSQLQLVESGGGSVQPGGSLRLSCEVSGRTFASYTMGWFRQAPGKEREFVVAISKGGYKYDSVSLEARFTISKDNTKNTVYLQMNSLKPEDTAVYYCAGTRAYGSSRLRLAETYEYWGQGTQVTVSS : 2.07

Documented IC50 of 2V30-9GS (VHH, Tandem bivalent nanobody) QLQLVESGGGSVQPGGSLRLSCEVSGRTFSSYTMGWFRQAPGKGREFVVAISKGGYKYDAVSLEARFTISKDNTKNTVYLQMNSLKPEDTAVYYCAATRAYGSSRLRLAKTYEYWGQGTQVTVSSGGGGSGGGSQLQLVESGGGSVQPGGSLRLSCEVSGRTFSSYTMGWFRQAPGKGREFVVAISKGGYKYDAVSLEARFTISKDNTKNTVYLQMNSLKPEDTAVYYCAATRAYGSSRLRLAKTYEYWGQGTQVTVSS : 1.41

Documented IC50 of 2V33-9GS (VHH, Tandem bivalent nanobody) QLQLVESGGGSVQPGGSLRLSCEVSGRTFSSYTMGWFRQAPGKEREFVVAISKGGYKYDSVSLEARFTISKDNTKNTVYLQMNSLKPEDTAVYYCAATRAYGSSRLRLAKTYEYWGQGTQVTVSSGGGGSGGGSQLQLVESGGGSVQPGGSLRLSCEVSGRTFSSYTMGWFRQAPGKEREFVVAISKGGYKYDSVSLEARFTISKDNTKNTVYLQMNSLKPEDTAVYYCAATRAYGSSRLRLAKTYEYWGQGTQVTVSS : 3.48

Documented IC50 of 2V36-9GS (VHH, Tandem bivalent nanobody) QLQLVESGGGSVQPGGSLRLSCEVSGRTFASYTMGWFRQAPGKEREFVVAISKGGYKYDSVSLEARFTISKDNTKNTVYLQMNSLKPEDTAVYYCAGTRAYGSSRLRLADTYEYWGQGTQVTVSSGGGGSGGGSQLQLVESGGGSVQPGGSLRLSCEVSGRTFASYTMGWFRQAPGKEREFVVAISKGGYKYDSVSLEARFTISKDNTKNTVYLQMNSLKPEDTAVYYCAGTRAYGSSRLRLADTYEYWGQGTQVTVSS : 3

Documented IC50 of 2V29-9GS (VHH, Tandem bivalent nanobody) QLQLVESGGGSVQPGGSLRLSCEVSGRTFSSYTMGWFRQAPGKEREFVVAISKGGYKYDSVSLEARFTISKDNTKNTVYLQMNSLKPEDTAVYYCAGTRAYGSSRLRLANTYEYWGQGTQVTVSSGGGGSGGGSQLQLVESGGGSVQPGGSLRLSCEVSGRTFSSYTMGWFRQAPGKEREFVVAISKGGYKYDSVSLEARFTISKDNTKNTVYLQMNSLKPEDTAVYYCAGTRAYGSSRLRLANTYEYWGQGTQVTVSS : 1.77
